Each recorded value in this set is attributed to PubChem BioAssay (NCATS).

- Protocol summary: qHTS of pediatric cancer cell lines to identify multiple opportunities for drug repurposing: Primary screen for Rh18 cells (AID 1347102); further: nearly all actives have a fitted effect of over 65% in size
- Condition set: Rh18 rhabdomyosarcoma viability, CellTiter-Glo luminescence, 48 h; series mostly up to 46 µM
Results filed as inconclusive are left out. Activity calls are given as the source filed them. The call rests on the fitted dose curve; in most records, active means well fitted cell-killing curve with a large enough effect; inconclusive means small, poorly fitted or top-dose-only effect; inactive means flat fitted curve, though single readings scatter.
Write down one outcome, taken from 1.0 (active), 0.0 (inactive)

Worked examples, 10 compounds total:
COc1cc(C)c(Cc2cnc(N)nc2N)cc1OC: 0.0
CN1CCOC(c2ccccc2)c2ccccc2C1 (configuration not stated): 0.0
OCC(O)CN1CCN(c2ccccc2)CC1 (configuration not stated): 0.0
C[C@H]1O[C@H](O[C@H]2[C@H](O)[C@@H](O)[C@@H](O[C@H]3[C@H](O)[C@@H](O)[C@H](O)O[C@@H]3CO)O[C@@H]2CO)[C@H](O)[C@@H](O)[C@@H]1N[C@H]1C=C(CO)[C@@H](O)[C@H](O)[C@H]1O: 0.0
NC1CCN(c2cccc(Cl)n2)CC1: 0.0
CC(=O)Nc1ccc(/C=N/NC(N)=S)cc1: 0.0
C[C@]12C[C@H](O)[C@H]3[C@@H](CCC4=CC(=O)CC[C@@]43C)[C@@H]1CC[C@@H]2C(=O)CO: 0.0
CC1(C)OC(=O)NC1=O: 0.0
c1ccc(CN(CC2=NCCN2)c2ccccc2)cc1: 0.0
O=C1Nc2ccc(Cl)cc2[C@@](C#CC2CC2)(C(F)(F)F)O1: 0.0

I'd appreciate the recorded outcome for NS(=O)(=O)c1cc2c(cc1C(F)(F)F)NC(Cc1ccccc1)NS2(=O)=O (configuration not stated) from this test.
0.0

In this assay, the call recorded for C=CCn1c(=O)n([C@@H]2O[C@H](CO)[C@@H](O)[C@H]2O)c2nc(N)[nH]c(=O)c21 was what?
0.0

Each compound tested received a call. Report the one for COc1ccc(Cl)cc1C(=O)NCCc1ccc(S(=O)(=O)NC(=O)NC2CCCCC2)cc1 .
0.0

Please state the recorded outcome for this compound: CCOC(=O)[C@H](CCc1ccccc1)N[C@@H](C)C(=O)N1C(=O)N(C)C[C@H]1C(=O)O
0.0

Please indicate how the test categorized CC(COc1ccccc1)NC(C)C(O)c1ccc(O)cc1 (configuration not stated) .
0.0

Please share the test call associated with CCN(CC)CCNC(=O)c1cc(Cl)c(N)cc1OC .
0.0

Please let me know the test result on file for Nc1cc(=O)[nH]c(N)n1 .
0.0

Per the records of this test, what outcome belongs to OCC(CO)N[C@H]1C[C@](O)(CO)[C@@H](O)[C@H](O)[C@H]1O ?
0.0

What is the recorded call for this compound in the test? COc1cc(C(=O)N2CCOCC2)cc(OC)c1OC
0.0

What classification did Cc1ncc(COP(=O)(O)O)c(C=O)c1O end up with in this test?
0.0

Given NC(=O)NC(=O)Cc1ccccc1 , state the outcome it received in this test.
0.0

----------
- Protocol summary: qHTS assay for small molecule antagonists of the retinoid-related orphan receptor gamma (ROR-gamma) signaling pathway - cell viability counter screen (AID 720652);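 further: compound exposure lasted 16 hr before ATP read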
- Condition set: RORgamma reporter cell line viability counter screen; series mostly up to 92.2 µM
Records with an inconclusive call do not appear. Active and inactive are the calls of the source. The call rests on the fitted dose curve; in most records, active means well fitted cell-killing curve with a large enough effect in the repeat runs; inconclusive means weak or mixed curves, or effect the other way; inactive means flat fitted curve, though single readings scatter.
Thanks in advance; please answer with one of these: Yes (active), No (inactive)

Previously resolved entries follow.
CCCCOC(=O)c1ccc(O)cc1: No
CCCCCCCCCCCCOS(=O)(=O)O: No
O=C1c2c(O)cccc2Cc2cccc(O)c21: No

# outcome recorded in this test, key = Cc1cc2nc3c(=O)[nH]c(=O)nc-3n(C[C@H](O)[C@H](O)[C@H](O)CO)c2cc1C
No

For Cc1c(O)cccc1C(=O)N[C@@H](CSc1ccccc1)[C@H](O)CN1C[C@H]2CCCC[C@H]2C[C@H]1C(=O)NC(C)(C)C , which call appears in the assay record?
Yes

Which result was noted for this molecule in the test: O=C1O[C@H]([C@@H](O)CO)C(O)=C1O
No

Tell me the recorded outcome of this test for NCCNCCNCCNCCN .
No

Per the assay record, what outcome was assigned to CC1(C)[C@@H]2CC[C@@]1(C)C(=O)C2 ?
No

Record lookup: outcome of this test for Cc1cc(CC(=O)O)n(C)c1C(=O)c1ccc(Cl)cc1 ?
No

For this molecule, state the assay outcome: CC12CCC(CC1)C(C)(C)O2
No

Just curious, what result did COc1ccccc1O get here?
No

Fill in: this test's call for NCCNCCNCCN is ___
No

What call does the record list for NC(=O)N/N=C/c1ccc([N+](=O)[O-])o1 ?
No

----------
- Tested on: 7G8
- Protocol summary: qHTS profiling for inhibitors of Plasmodium falciparum proliferation (AID 504749); further: nearly all actives have a fitted effect of over 60% in size; further: potency means the concentration at half of the fitted maximal effect
- Condition set: P. falciparum in erythrocytes, SYBR Green DNA, 72 h; series mostly up to 28.7 µM
Inconclusive results are not listed. The source made the active and inactive calls. Calls follow the shape of the dose curve; as a rule, active = well fitted inhibition curve with a large enough effect; inconclusive = small, poorly fitted or top-dose-only effect; inactive = flat fitted curve, though single readings scatter.
Property: Potency

The examples below pair each entry with its known result.
NC(=O)NNc1ccccc1: inactive
NCCNCCNCCNCCN: inactive
CC(=O)NC(Cc1ccccc1)C(=O)O (configuration not stated): inactive
CN1CCCCC1CCN1c2ccccc2Sc2ccc(S(C)=O)cc21 (configuration not stated): 10 µM (active)
Oc1cn2c(n1)Nc1ccc(Cl)c(Cl)c1C2: inactive

Please supply the value of reported Potency for the item Nc1nc2c(ncn2CCC(CO)CO)c(=O)[nH]1
inactive

Give Potency for Nc1ccc(S(=O)(=O)Nc2ccccc2)cc1
inactive

----------
- Tested on: Dd2
- Protocol summary: qHTS profiling for inhibitors of Plasmodium falciparum proliferation (AID 504749); further: nearly all actives have a fitted effect of over 60% in size
- Condition set: P. falciparum in erythrocytes, SYBR Green DNA, 72 h; series mostly up to 28.7 µM
Inconclusive results are not listed. The source made the active and inactive calls. Calls come from the whole dose curve; as a rule, active = well fitted inhibition curve with a large enough effect; inconclusive = small, poorly fitted or top-dose-only effect; inactive = flat fitted curve, though single readings scatter.
Field 'call' accepts 1 (active), -1 (inactive)

Please state the recorded outcome for this compound: O=C(O)COc1nn(Cc2ccccc2)c2ccccc12
-1

I would be grateful if you could indicate the recorded call for O=C(O)CN1C(=O)c2cccc3cccc(c23)C1=O .
-1

Could you please tell me the result logged for Cc1cc(N)c2ccccc2[n+]1CCCCCCCCCC[n+]1c(C)cc(N)c2ccccc21 in this assay?
1

----------
- Protocol summary: qHTS of pediatric cancer cell lines to identify multiple opportunities for drug repurposing: Primary screen for A673 cells (AID 1347092); further: nearly all actives have a fitted effect of over 45% in size
- Condition set: A673 Ewing sarcoma viability, CellTiter-Glo ATP luminescence, 48 h; series mostly up to 46 µM
Results filed as inconclusive are left out. Activity calls are given as the source filed them. Calls come from the whole dose curve; as a rule, active = well fitted cell-killing curve with a large enough effect; inconclusive = small, poorly fitted or top-dose-only effect; inactive = no such curve, though single readings can be large or run the other way.
Can you answer with just one of these options? active, inactive

CC(C)(C)C(=O)NCCCC(=O)O: inactive

What classification did OC[C@H]1O[C@@H](O[C@@H]2[C@@H](CO)O[C@](O)(CO)[C@H]2O)[C@H](O)[C@@H](O)[C@H]1O end up with in this test?
inactive

Give the logged outcome of this assay for the following compound: CCN(CC)CCNC(=O)c1cc(Cl)c(N)cc1OC
inactive

Outcome? CCOc1ccc2ccccc2c1C(=O)N[C@@H]1C(=O)N2[C@@H]1SC(C)(C)[C@@H]2C(=O)O
inactive

For CO/N=C(\C(=O)N[C@@H]1C(=O)N2C(C(=O)O)=C(CSc3nc(=O)c(O)nn3C)CS[C@H]12)c1csc(N)n1 , which call appears in the assay record?
inactive

Tell me the assay call for C[C@]12CC[C@@H]3c4ccc(O)cc4CC[C@H]3[C@@H]1CCC2=O please.
inactive

Identify the outcome logged in this assay for the compound shown: Oc1cn2c(n1)Nc1ccc(Cl)c(Cl)c1C2
inactive

Could you kindly confirm the outcome this assay logged for CCN(CC)CCNC(=O)c1c(C)[nH]c(/C=C2\C(=O)Nc3ccc(F)cc32)c1C ?
active

In this assay, the call recorded for CCCCOc1cc(C(=O)OCCN(CC)CC)ccc1N was what?
inactive

Could you check what this test reported for C[C@@H]1CCN(C(=O)[C@H](CCCN=C(N)N)NS(=O)(=O)c2cccc3c2NC[C@H](C)C3)[C@@H](C(=O)O)C1 ?
inactive

----------
- Tested on: AA1029
- Protocol summary: qHTS profiling for inhibitors of Plasmodium falciparum proliferation (AID 504749); further: nearly all actives have a fitted effect of over 60% in size
- Condition set: P. falciparum in erythrocytes, SYBR Green DNA, 72 h; series mostly up to 28.7 µM
Results filed as inconclusive are left out. Activity calls are given as the source filed them. The call rests on the fitted dose curve; in most records, active means well fitted inhibition curve with a large enough effect; inconclusive means small, poorly fitted or top-dose-only effect; inactive means flat fitted curve, though single readings scatter.
Give one outcome, nothing more. List: active, inactive

Answered examples (6):
NS(=O)(=O)c1cc2c(cc1Cl)NC(CSCc1ccccc1)=NS2(=O)=O: inactive
CCOC(=O)c1ccc(O)cc1: inactive
CCC(=O)Nc1ccc(O)cc1: inactive
Cc1cc(C(C#N)c2ccc(Cl)cc2)c(Cl)cc1NC(=O)c1cc(I)cc(I)c1O (configuration not stated): inactive
CC[C@@]1(c2ccccc2)NC(=O)N(C)C1=O: inactive
COc1cc(C)c(Cc2cnc(N)nc2N)cc1OC: inactive

Please let me know the test result on file for Oc1cccc(O)c1 .
inactive

Call for entry O=c1cc[nH]c(=O)[nH]1 :
inactive
